B1: Pistol ribozyme (parent)
chain: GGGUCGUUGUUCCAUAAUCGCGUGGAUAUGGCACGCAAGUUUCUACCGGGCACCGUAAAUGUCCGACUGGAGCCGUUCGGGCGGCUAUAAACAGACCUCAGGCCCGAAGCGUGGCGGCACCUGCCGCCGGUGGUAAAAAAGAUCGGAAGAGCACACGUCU

# Variants of: B1
# assay.summary: aptazyme ON/OFF ratio, guanine; higher = stronger switching; co-transcriptional cleavage with and without guanine
reported.property: aptazyme ON/OFF ratio

mutation.name: U7G U8G G9A
reported.property: aptazyme ON/OFF ratio
quantitative.readout: 3.82
//
mutation.name: U7C U8C G9U U10G U11C C12U
reported.property: aptazyme ON/OFF ratio
quantitative.readout: 1.25
//
mutation.name: U7A U8A G9C U10G U11A C12U C13G
reported.property: aptazyme ON/OFF ratio
quantitative.readout: 1.13
//
mutation.name: U7A U8A G9A C12U C13A
reported.property: aptazyme ON/OFF ratio
quantitative.readout: 1.11
//
mutation.name: U7C U8G G9U U10G U11G C12G
reported.property: aptazyme ON/OFF ratio
quantitative.readout: 1.22
//
mutation.name: U7A U8G G9A U10G U11C C12A
reported.property: aptazyme ON/OFF ratio
quantitative.readout: 1.45
//
mutation.name: U7A U8G U10G U11A
reported.property: aptazyme ON/OFF ratio
quantitative.readout: 2.88
//
mutation.name: U7G U8G G9U U10C U11A C12A C13U
reported.property: aptazyme ON/OFF ratio
quantitative.readout: 1.33
//
mutation.name: U7C G9A U11G C12U C13G
reported.property: aptazyme ON/OFF ratio
quantitative.readout: 1.23
//
mutation.name: U7A U8G G9A U10C C12G C13U
reported.property: aptazyme ON/OFF ratio
quantitative.readout: 1.17
//
mutation.name: U7G U8C G9A U11A C12G C13G
reported.property: aptazyme ON/OFF ratio
quantitative.readout: 1.06
